Recorded values, source patent US5620675A.

Give pKi for every item shown.
biological target: somatostatin receptor (Rattus norvegicus); construct: endogenous in cells; test: Inhibition of binding of [125I-Tyr11]somatostatin-14 to AR42J rat pancreatic tumor cell membranes; conditions: inhibition constant; displacement of 0.5 nM [125I-Tyr11]somatostatin-14 from AR42J cell membranes, 25 min at 30° C; free peptides and [Re=O]-complexed peptides
Non-standard residues stand in square brackets, D forms with d. Residues, ends and D or L forms follow the SMILES beside them. *: point of attachment. Phe(4-Cl) = N[C@@H](Cc1ccc(Cl)cc1)C(=O)O; X4 = CC(C)(S)CNCCN(CCCCC(=O)*)CC(C)(C)S; 2Nal = N[C@@H](Cc1ccc2ccccc2c1)C(=O)O; d2Nal = N[C@H](Cc1ccc2ccccc2c1)C(=O)O; Acm = CC(=O)NC*
Answers are plain numbers, as −log10 of the molar value.

Give pKi for each listed item.
1. C[C@@H](O)[C@H](NC(=O)[C@H](CCCCN)NC(=O)[C@@H](Cc1c[nH]c2ccccc12)NC(=O)[C@H](Cc1ccc(O)cc1)NC(=O)[C@H](Cc1ccc(Cl)cc1)NC(=O)[C@H](N)Cc1ccccc1)C(=O)N[C@@H](CS)C(=O)N[C@@H](Cc1ccc2ccccc2c1)C(N)=O [FD.Cpa.YWD KTC.Nal.amide] (H-[dF][Phe(4-Cl)]Y[dW]KTC[2Nal]-NH2)
2. CC(=O)NCSC[C@H](NC(=O)CNC(=O)[C@H](CSCNC(C)=O)NC(=O)[C@@H](NC(=O)[C@H](Cc1ccccc1)NC(=O)[C@@H](NC(=O)[C@H](CCCCN)NC(=O)[C@@H](Cc1c[nH]c2ccccc12)NC(=O)[C@H](Cc1ccc(O)cc1)NC(=O)[C@H](Cc1ccc(Cl)cc1)NC(=O)[C@H](N)Cc1ccccc1)[C@@H](C)O)[C@@H](C)O)C(N)=O [FD.CPa.YWD KTFTCAcm GCAcm.amide, FD.Cpa.YWD KTFTCAcm GCAcm.amide] (H-[dF][Phe(4-Cl)]Y[dW]KTFTC(Acm)GC(Acm)-NH2)
3. CSC[C@H](NC(=O)[C@@H](NC(=O)[C@H](CCCCN)NC(=O)[C@@H](Cc1c[nH]c2ccccc12)NC(=O)[C@H](Cc1ccc(O)cc1)NC(=O)[C@H](CSC)NC(=O)[C@@H](Cc1ccc2ccccc2c1)NC(=O)[C@@H](N)CCCCNC(=O)CCCCN(CCNCC(C)(C)S)CC(C)(C)S)C(C)C)C(=O)N[C@H](C(N)=O)[C@@H](C)O [K.[BAT].D-Nal.CMe YWD KVCMe T.amide, K(BAT).D-Nal.CMe YWD KVCMe T.amide] (H-K(X4)[d2Nal]C(Me)Y[dW]KVC(Me)T-NH2; N-terminus assumed)

# output
1. 8.09
2. 9.07
3. 8.00

---

molecular target: somatostatin receptor (Rattus norvegicus, UniProt P30680); construct: endogenous in cells; host or cells: AR42J rat pancreatic tumor cell line (membrane preparation); assay: Inhibition of binding of [125I-Tyr11]somatostatin-14 to AR42J rat pancreatic tumor cell membranes; details: inhibition constant; displacement of 0.5 nM [125I-Tyr11]somatostatin-14 from AR42J cell membranes, 25 min at 30° C; free peptides and [Re=O]-complexed peptides
Sequence (P30680 whole entry): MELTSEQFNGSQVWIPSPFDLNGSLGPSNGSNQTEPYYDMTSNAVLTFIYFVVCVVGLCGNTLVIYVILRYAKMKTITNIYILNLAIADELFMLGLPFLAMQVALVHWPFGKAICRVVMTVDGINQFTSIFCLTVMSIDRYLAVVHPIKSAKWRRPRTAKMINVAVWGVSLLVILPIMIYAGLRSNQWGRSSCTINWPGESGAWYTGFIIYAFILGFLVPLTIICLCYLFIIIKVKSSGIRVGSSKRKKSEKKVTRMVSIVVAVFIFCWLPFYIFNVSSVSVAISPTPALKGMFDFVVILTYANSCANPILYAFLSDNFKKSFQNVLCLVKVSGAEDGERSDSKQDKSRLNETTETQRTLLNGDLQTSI
Give Ki for every item shown.
Numbers only, in nM.

Give Ki for each listed item.
1. Ac.FD FYWD KTFTGGG(ε-K)GC.amide
2. AKCGGGFD FYWD KTFT.amide
3. FD.CPa.YWD KTFTCGC.amide (not fully specified; Re=O complex; FD.CPa.YWD prefix; C-terminal amide)
4. AKCGGGFD.Cpa.YWD KTFT.amide
5. Ac.FD FYWD KTFGGG(ε-K)KC.amide

# output
[8.1, 2.9, 0.37, 0.76, 6.1]

---

biological target: somatostatin receptor (Rattus norvegicus, UniProt P30680); construct: endogenous in cells; test: Inhibition of binding of [125I-Tyr11]somatostatin-14 to AR42J rat pancreatic tumor cell membranes; conditions: inhibition constant; displacement of 0.5 nM [125I-Tyr11]somatostatin-14 from AR42J cell membranes, 25 min at 30° C; free peptides and [Re=O]-complexed peptides
Starred links: 1 amine or outer side, 2 acyl side, 3 side chain; linkers in the order of their positions; H or OH if unused. Non-standard residues stand in square brackets, D forms with d. Residues, ends and D or L forms follow the SMILES beside them. *: point of attachment. Phe(4-Cl) = N[C@@H](Cc1ccc(Cl)cc1)C(=O)O; εLys = N[C@@H](CCCCN[*:1])C(=O)[*:2]; Acm = CC(=O)NC*
measurement_kind: Ki
Write down the value, and be sure its unit follows.

CC(=O)NCSC[C@H](NC(C)=O)C(=O)NCC(=O)N[C@@H](CSCNC(C)=O)C(=O)N[C@H](Cc1ccccc1)C(=O)N[C@@H](Cc1ccc(Cl)cc1)C(=O)N[C@@H](Cc1ccc(O)cc1)C(=O)N[C@H](Cc1c[nH]c2ccccc12)C(=O)N[C@@H](CCCCN)C(=O)N[C@H](C(=O)N[C@@H](Cc1ccccc1)C(=O)N[C@H](C(N)=O)[C@@H](C)O)[C@@H](C)O [Ac.CAcm GCAcm FD.CPa.YWD KTFT.amide, Ac.CAcm GCAcm FD.Cpa.YWD KTFT.amide] (Ac-C(Acm)GC(Acm)[dF][Phe(4-Cl)]Y[dW]KTFT-NH2)	0.73 nM

# input Form: Entry = CC(=O)N[C@H](Cc1ccccc1)C(=O)N[C@@H](Cc1ccccc1)C(=O)N[C@@H](Cc1ccc(O)cc1)C(=O)N[C@H](Cc1c[nH]c2ccccc12)C(=O)N[C@@H](CCCCN)C(=O)N[C@H](C(=O)N[C@@H](Cc1ccccc1)C(=O)N[C@H](C(=O)NCC(=O)NCC(=O)NCC(=O)NCCCC[C@H](N)C(=O)NCC(=O)N[C@@H](CS)C(N)=O)[C@@H](C)O)[C@@H](C)O [Ac.FD FYWD KTFTGGG(ε-K)GC.amide] (Ac-[dF]FY[dW]KTFTGGG[εLys]GC-NH2) | System = somatostatin receptor (Rattus norvegicus, UniProt P30680) | Ki = ____
# output 8.2 nM
